PROTOCOL_SUMMARY: yeast display, Sf9 membrane polyspecificity reagent, FACS + sequencing; frameworks hold sequencing errors
READOUT: polyreactivity (PSR sort gate)

INSERT INTO measurements (residues, readout, value_reported) VALUES
  ('QVQLVESGGGLVQAGGSLRLSCDASGGPFYLNAMGWYRPAPGTERELVAGITWGGGRTYYADSVKGLFTISRDNAKNTVYLQMNSLKPEDTAVYYCAAGAWRGPYSGYYYWGQGTQVTVSS', 'polyreactivity (PSR sort gate)', 'low polyreactivity'),
  ('QVQLVESGGGLVQAGGSLRLRCAASGRIFGRNAMGWYRQAPGKERELVATISSGDTTDYADSVKGRFTISRDNAKNTVYLQMNSLKPEDTAVYYITIYNYWGQGTQVTVSS', 'polyreactivity (PSR sort gate)', 'low polyreactivity'),
  ('QVQLVESGGGLVQAGGSLRLICAASGRTFSGNTMGWYRQAPGKERELVAAITGRGGSTYYADSVKGRFTISRDNAKNTVYLQMNSLKPEDTAVYYCAALRYTFAGRFDYWGHGTQVTVSS', 'polyreactivity (PSR sort gate)', 'high polyreactivity'),
  ('HAQLQESGGGLVQAGGSLRRSCAASGSIFRFSGMGWYRRAPGKERELVASIGFGSITYYADRVKGRFTISRDHANNTVYLQMNSLKPEDTAVYYCAVQVQDESWLDYWGQGTQVTVSC', 'polyreactivity (PSR sort gate)', 'low polyreactivity'),
  ('QDQLVESGGGLVQAGASLRLSCPASGFLFESNAMGWYRQAPGKERELVAAITKRGGSTYYADSVKGRFTISRDNAKNTVYLQMKSLKPEDTAVYYCARYSSRYSSGYDYWGQGTQVTVSS', 'polyreactivity (PSR sort gate)', 'high polyreactivity');

Quick one: give measured polyreactivity (PSR sort gate) for "QVQLVESGGGLVQAGGSLRLSCAASGITFLTYTMGWYRQAPGKERELVAAISRSGGRTYYADSVKGRFTISRDNAKNTVYFQMNSLKPEDTAVYYCAAVSANQDFDYWGQGTQVTVSS" high polyreactivity

Quick one: give measured polyreactivity (PSR sort gate) for "QVQLVESGGGLVQAGGSLRLSCAASGFTFHYNAMGWYRQAPGKERELVAAISRSGGITNYADSVKGRFTISRDNAKNTVYLQMNSLKPEDTAVYYCAAYLVVRIRYTQRYDYWGQGTQVTVSS" low polyreactivity

Quick one: give measured polyreactivity (PSR sort gate) for "QVQLVESGGGFVQAGGSLRLSCAGSGRIYYRYAMGWYSQERGKERELVAAISGSVGSTYADYVKGRFTISRDNAKNTVYLQMKSLKPEDTAFYYCARETYGRYGAYDYWGQGTQVTVSS" low polyreactivity

Quick one: give measured polyreactivity (PSR sort gate) for "QVQLVESGGGLVQAGGSLRLSCAASGFTFSRNAMGWYRQAPGKERELVAAIDSGGSTDYADSVKGRFTISRDNAKNTVYLQLNSLKPEDTAVYYCAKASSATRYVQLRQDYDYWGQGTQVTVSS" low polyreactivity

Quick one: give measured polyreactivity (PSR sort gate) for "QVQLVESGGGLVQAGGSLRLSCAASGFTFSRYAMGWYRQAPGKEREFVAAISWSGGSTYYADSVKGRFTISRDNAKNTVYLQMNSLKPEDTAVYYCNAGSQLLASQTRYDYWGQGTQVTVSS" low polyreactivity

Quick one: give measured polyreactivity (PSR sort gate) for "QVQLVESGGGLVQAGGSLRLSCAASGFTSWDNDMGWYRQAPGKERELVAAMSRGGSTNYADSVKGRFTISRDNAKNTVYLQMNSLKPEDTAVYYCAAGSYAGFAVIGYYYWGQGTQVTVSS" low polyreactivity
